# Test system: HeLa
# test-protocol: Primary qHTS to identify gynecologic anti-cancer compounds using libraries of approved drugs and bioactive compounds (AID 1345084); further: nearly all actives have a fitted effect of over 55% in size; further: potency means the concentration at half of the fitted maximal effect
# stated-conditions: Gynecologic cancer cell panel viability, ATPlite luminescence, 48 h; series mostly up to 57.5 µM
Results filed as inconclusive are left out. The source made the active and inactive calls. The call rests on the fitted dose curve; in most records, active means well fitted cell-killing curve with a large enough effect; inconclusive means small, poorly fitted or top-dose-only effect, or effect the other way; inactive means flat fitted curve, though single readings scatter.
measurement-name: Potency

// below: answered compounds
C=C1C(=O)O[C@@H]2C[C@@]3(C)CCCC(=C)[C@]3(O)C[C@H]12 :: inactive
O=C(Nc1ccc(Cl)cc1)C1CCCN(C(=O)c2cccc(-c3ccco3)c2)C1 (stereo not given) :: inactive
Cc1nc(C#Cc2ccnc(Cl)c2)c(C)n1-c1ccc(OC(F)(F)F)cc1 :: inactive
O=C(Nc1nc2cc(C(F)(F)F)cc(NC3CC3)n2n1)c1cccnc1 :: 12.6 µM (active)

Would you kindly look at the next entry?
In: For the record "N#Cc1cnc2c(Cl)cc(NCc3cn(CCN4CCCCCC4)nn3)cc2c1Nc1ccc(F)c(Cl)c1" , what value of Potency is listed for HeLa?
Out: inactive

----------
# System: Zika virus NS2B-NS3 protease (linked construct)
# test-protocol: Primary screen NINDS Rhodamine qHTS for Zika virus inhibitors (AID 1347160); further: nearly all actives have a fitted effect of over 55% in size
# stated-conditions: purified NS2B-NS3 protease, Rhodamine110 substrate fluorescence; series mostly up to 57.1 µM
Inconclusive results are not listed. Calls of active or inactive are those of the source. Calls come from the whole dose curve; as a rule, active = well fitted inhibition curve with a large enough effect; inconclusive = small, poorly fitted or top-dose-only effect; inactive = no such curve, though single readings can be large or run the other way.
Mark one answer only. Choices: Yes (active), No (inactive)

CCOC(=O)C1=Cc2ccc(C(F)(F)C(F)(F)F)cc2N=C(N)C1 :: No
Cc1nnc(C[C@@H]2C=C(c3ccc(Cl)cc3)c3ccccc3-n3c(C)nnc32)o1 :: No
CC(C)NC(=O)N1CC[C@H](N=C2Nc3cc(F)ccc3N(CC(F)F)c3ccc(Cl)cc32)C1 :: No

In: # fetch the recorded call for "COc1ccc(-c2ccccc2)cc1NS(=O)(=O)c1cc(Cl)cc(Cl)c1O" here
Out: Yes

In: # fetch the recorded call for "CCN1CCN(Cc2ccc(NC(=O)c3ccc(C)c(Oc4ccnc5[nH]ccc45)c3)cc2C(F)(F)F)CC1" here
Out: No

In: # fetch the recorded call for C[C@H]1CC[C@@]2(OC1)O[C@H]1CC3C4CC[C@H]5C[C@@H](O)CC[C@]5(C)C4=CC(=O)[C@]3(C)[C@H]1[C@@H]2C (some centres undefined) here
Out: No

----------
# Tested on: Tov-21-G
# test-protocol: Primary qHTS to identify gynecologic anti-cancer compounds using libraries of approved drugs and bioactive compounds (AID 1345084); further: nearly all actives have a fitted effect of over 55% in size
# stated-conditions: Gynecologic cancer cell panel viability, ATPlite luminescence, 48 h; series mostly up to 57.5 µM
Records with an inconclusive call do not appear. Activity calls are given as the source filed them. Calls come from the whole dose curve; as a rule, active = well fitted cell-killing curve with a large enough effect; inconclusive = small, poorly fitted or top-dose-only effect, or effect the other way; inactive = flat fitted curve, though single readings scatter.
Mark one answer only. Choices: active, inactive

C[C@@H]1CCCN1CCc1cc2cc(-c3ccc(C#N)cc3)ccc2o1 :: inactive

In: # fetch the recorded call for "COc1cccc(-c2cn(-c3ccc(CCN4CCC(O)CC4)cc3)c3ncnc(N)c23)c1" here
Out: active

In: # fetch the recorded call for "CCn1c2ccccc2c2cc(Nc3ccnc(NCCCN4CCOCC4)n3)ccc21" here
Out: inactive

In: # fetch the recorded call for "C=C1CCC[C@]2(C)CC/C(=C(/CO)C(=O)OC)C[C@@H]12" here
Out: inactive

In: # fetch the recorded call for "Cc1sc2c(c1C)C(c1ccc(Cl)cc1)=N[C@H](CC(=O)NCCCCNC(=O)COc1cccc3c1C(=O)N([C@H]1CCC(=O)NC1=O)C3=O)c1nnc(C)n1-2" here
Out: active
